Source of measurements: ChEMBL document CHEMBL4483862

Tested on: Plasmodium berghei
test.details: Luciferase/luciferin-expressing antifolate-resistant parasites were used to infect a culture of HepG2 cells that were pre-incubated with compounds. Infected hepatocytes emit light due to the luciferase reaction. Assay results are presented as the percent inhibition of light emission compared to control. […]
Assay type: functional
condition.details: sporozoite, read-out: LUCIFERASE INFECTION ASSAY - IC90
# IC90 per record follows

{"chem.smiles": "CCCN(CCC)C(=S)NC(=O)c1cccc([N+](=O)[O-])c1", "IC90": "> 10.7 µM"}
{"chem.smiles": "CS(=O)(=O)c1ccc(S(=O)(=O)Nc2cccc3c2CCCC3)cc1", "IC90": "> 10 µM"}
{"chem.smiles": "C/C(Cn1nnc(-c2ccc(C(F)(F)F)cc2)n1)=N\\NC(N)=S", "IC90": "3.45 µM"}
{"chem.smiles": "COc1ccc(CNC(=O)c2ccc(C3(CNc4cccc(OC)c4)CC3)cc2)cc1", "IC90": "> 10 µM"}
{"chem.smiles": "COc1c(Cl)cc([N+](=O)[O-])c(OC)c1C(=O)NC(=O)Nc1cc(Cl)cc(Cl)c1", "IC90": "> 7.36 µM"}
{"chem.smiles": "Cc1ccc(C)c(OCCSc2ccc(C(=O)NC3CC3)cn2)c1", "IC90": "3.93 µM"}

====

System: Plasmodium berghei
test.details: Luciferase/luciferin-expressing antifolate-resistant parasites were used to infect a culture of HepG2 cells that were pre-incubated with compounds. Infected hepatocytes emit light due to the luciferase reaction. Assay results are presented as the percent inhibition of light emission compared to control. […]
Assay type: functional
condition.details: sporozoite, FFLUC_HILL_SLOPE 17.9, FFLUC_R_SQUARED 0.511, HEPG2TOX_HILL_SLOPE 2.63, HEPG2TOX_R_SQUARED 0.88, PBLUC_HILL_SLOPE 16.1, PBLUC_R_SQUARED 0.687, read-out: LUCIFERASE INFECTION ASSAY - IC50

{"chem.smiles": "O=C(Nc1nonc1-c1cccs1)c1sc2cc(Cl)ccc2c1Cl", "unit.symbol": "nM", "IC50": 2410}

====

Tested on: Plasmodium berghei
test.details: Luciferase/luciferin-expressing antifolate-resistant parasites were used to infect a culture of HepG2 cells that were pre-incubated with compounds. Infected hepatocytes emit light due to the luciferase reaction. Assay results are presented as the percent inhibition of light emission compared to control. […]
Type: functional
condition.details: sporozoite, HEPG2TOX_HILL_SLOPE 2.61, HEPG2TOX_R_SQUARED 0.966, PBLUC_HILL_SLOPE 9.48, PBLUC_R_SQUARED 0.381, read-out: LUCIFERASE INFECTION ASSAY - IC50

{"chem.smiles": "CC1CCN(Cc2csc(NC(=O)c3ccc(SCc4cscn4)cc3)n2)CC1", "IC50": "7.74 µM"}

====

Test system: Plasmodium berghei
test.details: Luciferase/luciferin-expressing antifolate-resistant parasites were used to infect a culture of HepG2 cells that were pre-incubated with compounds. Infected hepatocytes emit light due to the luciferase reaction. Assay results are presented as the percent inhibition of light emission compared to control. […]
Assay type: functional
condition.details: sporozoite, HEPG2TOX_HILL_SLOPE 12.4, HEPG2TOX_R_SQUARED 0.749, PBLUC_HILL_SLOPE 4.61, PBLUC_R_SQUARED 0.122, read-out: LUCIFERASE INFECTION ASSAY - IC50

{"chem.smiles": "CCc1ccc(CC)c(-c2csc(N/C(C)=C(\\C#N)C(N)=O)n2)c1", "IC50, µM": 8.16}

====

# IC90 per record follows
System: Plasmodium berghei
test.details: Luciferase/luciferin-expressing antifolate-resistant parasites were used to infect a culture of HepG2 cells that were pre-incubated with compounds. Infected hepatocytes emit light due to the luciferase reaction. Assay results are presented as the percent inhibition of light emission compared to control. […]
Format: functional
condition.details: sporozoite, read-out: LUCIFERASE INFECTION ASSAY - IC90
measured.parameter: IC90

{"compound": "CN(C)C(=O)c1ccc(-c2cc3c(Nc4cccc(N(C)C)c4)nccc3n2C)cc1", "reading": "> 10 µM"}
{"compound": "Cc1cc(/C=C/c2cc(C(=O)O)c3ccccc3n2)cc(C)c1OC(F)F", "reading": "3.87 µM"}
{"compound": "O=C(Nc1ccc2nc(Cc3ccccc3)nn2c1)Nc1cccs1", "reading": "> 3.33 µM"}
{"compound": "CS(=O)(=O)c1nc2ccccc2n1Cc1cc(=O)n2ccccc2n1", "reading": "> 10 µM"}
{"compound": "O=C1c2cc(Br)ccc2S(=O)(=O)N1CC(c1ccco1)N1CCCC1 (stereo not given)", "reading": "> 10 µM"}

====

Test system: Plasmodium berghei
test.details: Luciferase/luciferin-expressing antifolate-resistant parasites were used to infect a culture of HepG2 cells that were pre-incubated with compounds. Infected hepatocytes emit light due to the luciferase reaction. Assay results are presented as the percent inhibition of light emission compared to control. […]
Format: functional
condition.details: sporozoite, PBLUC_HILL_SLOPE 1.44, PBLUC_R_SQUARED 0.478, read-out: LUCIFERASE INFECTION ASSAY - IC50
pIC50: −log10 of the molar value.

{"chem.smiles": "Cc1cc(C(=O)N(C)Cc2nc(=O)c3ccccc3[nH]2)c(C)n1-c1ccccc1F", "measurement.target": "Plasmodium berghei", "pIC50": 5.16}

====

Tested on: Plasmodium berghei
test.details: Luciferase/luciferin-expressing antifolate-resistant parasites were used to infect a culture of HepG2 cells that were pre-incubated with compounds. Infected hepatocytes emit light due to the luciferase reaction. Assay results are presented as the percent inhibition of light emission compared to control. […]
Type: functional
condition.details: sporozoite, PBLUC_HILL_SLOPE 6.43, PBLUC_R_SQUARED 0.126, read-out: LUCIFERASE INFECTION ASSAY - IC50

{"chem.smiles": "CC(C)(C)C(=O)Nc1ccc(-c2csc(-n3nccc3C(F)(F)F)n2)cc1", "measurement.target": "Plasmodium berghei", "IC50, µM": 8.51}

====

Test system: Plasmodium berghei
test.details: Luciferase/luciferin-expressing antifolate-resistant parasites were used to infect a culture of HepG2 cells that were pre-incubated with compounds. Infected hepatocytes emit light due to the luciferase reaction. Assay results are presented as the percent inhibition of light emission compared to control. […]
Type: functional
condition.details: sporozoite, HEPG2TOX_HILL_SLOPE 1.8, HEPG2TOX_R_SQUARED 0.951, read-out: LUCIFERASE INFECTION ASSAY - IC50
pIC50: −log10 of the molar value.

{"compound": "CC1(C(=O)NC(=S)NNc2nc3ccccc3[nH]2)CC1(Cl)Cl (stereo unspecified)", "pIC50": "< 5.00"}

====

System: Plasmodium berghei
test.details: Luciferase/luciferin-expressing antifolate-resistant parasites were used to infect a culture of HepG2 cells that were pre-incubated with compounds. Infected hepatocytes emit light due to the luciferase reaction. Assay results are presented as the percent inhibition of light emission compared to control. […]
Assay type: functional
condition.details: sporozoite, PBLUC_HILL_SLOPE 2.99, PBLUC_R_SQUARED 0.247, read-out: LUCIFERASE INFECTION ASSAY - IC50
measured.parameter: IC50 (µM)

{"chem.smiles": "Cc1nc2ccc(I)cn2c1/C=N/Nc1ccccn1", "measured.parameter": "IC50", "reading": 6.77}

====

System: Plasmodium berghei
test.details: Luciferase/luciferin-expressing antifolate-resistant parasites were used to infect a culture of HepG2 cells that were pre-incubated with compounds. Infected hepatocytes emit light due to the luciferase reaction. Assay results are presented as the percent inhibition of light emission compared to control. […]
Type: functional
condition.details: sporozoite, PBLUC_HILL_SLOPE 8.8, PBLUC_R_SQUARED 0.371, read-out: LUCIFERASE INFECTION ASSAY - IC50
measured.parameter: IC50 (µM)

{"chem.smiles": "COc1cc(Nc2nccc3c2cc(-c2ccc(C(=O)N(C)C)cc2)n3C)cc(C(F)(F)F)c1", "measured.parameter": "IC50", "reading": 3.62}

====

System: Plasmodium berghei
test.details: Luciferase/luciferin-expressing antifolate-resistant parasites were used to infect a culture of HepG2 cells that were pre-incubated with compounds. Infected hepatocytes emit light due to the luciferase reaction. Assay results are presented as the percent inhibition of light emission compared to control. […]
Format: functional
condition.details: sporozoite, PBLUC_HILL_SLOPE 18.8, PBLUC_R_SQUARED 0.168, read-out: LUCIFERASE INFECTION ASSAY - IC50
pIC50: −log10 of the molar value.

{"molecule": "Cc1nn(Cc2ccccc2Cl)c2sc(C(=O)OC(C)c3nc(=O)c4ccccc4[nH]3)cc12 (stereo unspecified)", "pIC50": 5.00}

====

Test system: Plasmodium berghei
test.details: Luciferase/luciferin-expressing antifolate-resistant parasites were used to infect a culture of HepG2 cells that were pre-incubated with compounds. Infected hepatocytes emit light due to the luciferase reaction. Assay results are presented as the percent inhibition of light emission compared to control. […]
Format: functional
condition.details: sporozoite, HEPG2TOX_HILL_SLOPE 3.44, HEPG2TOX_R_SQUARED 0.175, PBLUC_HILL_SLOPE 15.5, PBLUC_R_SQUARED 0.331, read-out: LUCIFERASE INFECTION ASSAY - IC50

{"chem.smiles": "Cc1ccc2nc(NC(=O)c3ccc(Cl)cc3)c(C(=O)NC3CCCC3)n2c1", "unit.symbol": "nM", "IC50": 2680}
